These measurements were taken from PubChem BioAssay.

assayInfo: OD615 S. cerevisiae growth inhibition, permissive medium, pilot counter-assay, permissive growth control for S. cerevisiae lifespan shortening project (AID 705)
appliedConditions: OD615, 24 h, at 10 µM, hits give high values
measure: growth inhibition (%)

COc1ccc(NC(=O)CSc2nnc(Cn3c(=O)sc4ccccc43)n2C)cc1 ... -3.85
O=C(Nc1nc(-c2ccc3c(c2)OCO3)cs1)C1COc2ccccc2O1 (configuration not stated) ... 0.51
O=C(NC1CCCCCCC1)c1ccc(CNc2c(N3CCOCC3)c(=O)c2=O)cc1 ... 1.56
C=CCc1cccc2cc(C(=O)N(C)C)c(=O)oc12 ... -7.92
Cc1cc2ccccc2n1CCNC(=O)C(C)C ... -8.34
COC(=O)C1C(O)=C(C(C)=N)C(=O)CC1(C)C (configuration not stated) ... -3.89
CCOc1cc2c(cc1OCC)C(c1ccc(O)c(OC)c1)NCC2 (configuration not stated) ... -5.95
OCCNCCCCCOc1ccc(F)cc1 ... -1.2
COc1ccc2cc(CCNC(=O)c3c(-c4ccccc4Cl)noc3C)c(=O)[nH]c2c1 ... -14.1
CCN(c1cccc(C)c1)c1ncnc2nc[nH]c12 ... -4.6
CCN(CC)C(=O)C1CCCN(C/C=C/c2ccccc2)C1 (configuration not stated) ... -5
O=C1NC(c2ccco2)Nc2sc3c(c21)CCN(Cc1ccccc1)C3 (configuration not stated) ... 4.68

---

Listed next: entries and their corresponding viability increase.
assayInfo: viability gain of MRP-1-high H69AR cells under doxorubicin, pilot screen, MRP-1 activator project, CellTiter-Glo, duplicate (AID 807);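 further: compound pretreatment 18-22 h then 72 h combined with doxorubicin; 0% = doxorubicin alone and 100% = vehicle without doxorubicin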
appliedConditions: H69AR viability with doxorubicin, CellTiter-Glo luminescence; at 10 µM; hits give high values
measure: viability increase (%)

COC(=O)c1ccsc1NC(=O)c1ccc2c(c1)OCCO2 ... -4.78
OCCCc1nc2ccccc2n1CCOc1ccccc1 ... -0.86
Cc1ccc(OS(=O)Nc2cccc3nccnc23)cc1 (stereo not drawn) ... -4.19
COc1cc2[nH]c(=O)n(CCCCCC(=O)NCCCN3CCC(C)CC3)c(=O)c2cc1OC ... -0.8
Cn1c(NC(=O)C(C)(C)Oc2ccc(Cl)cc2)cc(=O)n(C)c1=O ... -0.77
COc1ccc(-c2cc(C(F)(F)F)nc(N3CCN(C)CC3)n2)cc1 ... -5.32
O=C(CNC(=O)c1ccccc1F)NC1CC1 ... -2.87
O=C1CCCN1CC(CN1CCOCC1)Sc1nnnn1-c1ccccc1 (stereo not drawn) ... -3.37
Clc1cccc(CSc2nnc(-c3ccccn3)n2Cc2ccco2)c1 ... -1.98
COc1ccc(OC)c(NC(=O)c2ccc(NC(C)=O)cc2)c1 ... 0.76
COC(=O)c1cn(NC(=O)c2ccc3c(c2)OCO3)c(=O)c2ccccc12 ... -2.75
O=C(CN1CCOc2ccccc21)NC1CCCCCCC1 ... -5.54
Cn1c(C(=O)N2CCN(c3ccccn3)CC2)cc2c(=O)n(C)c3ccccc3c21 ... -2.39
Cc1ccc(/C(O)=C2/C(=O)C(=O)N(CCN3CCOCC3)C2c2cccnc2)cc1 (stereo not drawn) ... 0.49
Cn1c(=O)c2c(nc(SCc3cc4c(cc3Cl)OCO4)n2C)n(C)c1=O ... -0.21
COc1ccc(-c2nc(CS(=O)CC(=O)N3CCc4ccccc4C3)c(C)o2)cc1 (stereo not drawn) ... -2.66
C=CCn1c(=N)c(C(=O)NCCCOC)cc2c(=O)n3cccc(C)c3nc21 ... -2.3
O=C(Nc1ccccc1F)C1CCCN(S(=O)(=O)c2cccc3cccnc23)C1 (stereo not drawn) ... -1.63
CC1CCN(C(=O)C(Cc2ccccc2)NS(=O)(=O)c2ccc3c(c2)oc(=O)n3C)CC1 (stereo not drawn) ... -1.4
Cc1cc(NS(=O)(=O)c2ccccc2)c(C)c(Cl)c1O ... -4.31
Cn1c(C(C#N)C(=O)Cc2cccc3ccccc23)nc2ccccc21 (stereo not drawn) ... -1.14
Cc1cc2cc(CNS(=O)(=O)c3ccccc3)ccc2n1C ... -1.48
Cn1c(=O)c2c(SC3CCCC3)nc(C3CC3)nc2n(C)c1=O ... 1.43

---

We begin with a simple list: items and their reported viability increase.
assayInfo: viability gain of MRP-1-high H69AR cells under doxorubicin, pilot screen, MRP-1 activator project, CellTiter-Glo, duplicate (AID 807);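 further: compound pretreatment 18-22 h then 72 h combined with doxorubicin; 0% = doxorubicin alone and 100% = vehicle without doxorubicin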
appliedConditions: H69AR viability with doxorubicin, CellTiter-Glo luminescence; at 10 µM; hits give high values
measure: viability increase (%)

N#Cc1cnn(CC2CCCCC2)c1N ... -0.89
CC1CCCC(C)N1CCCNC(=O)Cn1cc2c(n1)CCCC2 (stereo unspecified) ... -1.41
Cc1oc(-c2ccccc2F)nc1CS(=O)CC(=O)NCc1ccc2c(c1)OCO2 (stereo unspecified) ... -1.41
COc1ccc(CCN2CC(C#N)=C3c4cc(OC)c(OC)cc4CCN3C2)cc1OC ... -4.7
C=CCn1c(CCCNC(=O)C(C)(C)C)nc2ccccc21 ... -1.33
CCCCn1c(CN2CCOCC2)nc2c1c(=O)n(C)c(=O)n2C ... -1.72

---

The reader will find reported inhibition values listed item by item below.
assayInfo: inhibitors of the yeast RAM network, pilot screen, dse1pr::URA3 reporter, 5-FOA selection (AID 869);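 further: 0% = DMSO wells with no growth and 100% = 10 µM 1-NA-PP1 with full growth; RAM network block rescues cells from 5-FOA so hits raise OD615 growth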
appliedConditions: S. cerevisiae dse1pr::URA3 5-FOA growth, OD615, 2 d; at 10 µM; hits give high values; strain carries analog-sensitive mutant Cbk1 kinase
The source made the active and inactive calls.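 Rule for the calls: active = inhibition over a set limit, the all-compound mean plus 3 SD, in both replicate runs; inconclusive = over that limit in just one replicate run; inactive = at or under that limit in both runs.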
measure: inhibition

COCCNC(=O)CN(c1cc(C(F)(F)F)ccc1Cl)S(C)(=O)=O ... 3.02% (inactive)
c1ccc(COc2nsnc2N2CCOCC2)cc1 ... 0.145% (inactive)
CCCCOC(=O)Nc1sc2c(c1C(=O)OC)CCC2 ... 0.325% (inactive)
Cc1cc(C(=O)NCc2ccco2)cs1 ... 2.28% (inactive)
c1coc(C2Nc3ccccc3-c3nc4ccccc4n32)c1 (configuration not stated) ... 2.14% (inactive)
CCCCN(CC)CCNC(=O)Cn1cnc2sc(C)c(S(=O)(=O)N3CCOCC3)c2c1=O ... 2.3% (inactive)
COc1ccc(N2CC(C(=O)Nc3ccc(S(=O)(=O)Nc4nc(C)cc(C)n4)cc3)CC2=O)cc1 (configuration not stated) ... 1% (inactive)
COc1cccc(Cn2nnc(C(=O)NCc3ccc(F)cc3)c2N)c1 ... 0.99% (inactive)
O=C(NC1CCCCCCC1)c1cnccn1 ... 1.72% (inactive)
O=C(NCCc1ccccc1)c1ccc(Br)o1 ... 0.77% (inactive)
O=C(NC1CCCC1)c1ccc(CS(=O)(=O)c2ccc(Br)cc2)o1 ... 3.01% (inactive)
O=C(NC1CCCCCC1)c1nnc(Cc2ccc(Cl)cc2)o1 ... 1.31% (inactive)
COCCCNC(=O)COc1cc(C)c(Cl)c(C)c1 ... -0.185% (inactive)
CC1CCN(S(=O)(=O)c2ccc3c(c2)oc(=O)n3CC(=O)N2c3ccccc3CC2C)CC1 (configuration not stated) ... 2.85% (inactive)
Cc1nn(C)c(C)c1S(=O)(=O)N(CC(=O)NCc1ccco1)c1ccc(C(C)C)cc1 ... -0.17% (inactive)
CCOc1ncccc1C(=O)OCC(=O)Nc1cc(C(=O)OC)ccc1C(=O)OC ... 2.11% (inactive)
COc1ccc(CNC(=O)c2cnn3c(C(F)F)cc(C)nc23)cc1OC ... 1.99% (inactive)
COc1ccc(OCCSc2nnc(-c3ccccc3)n2N)cc1 ... 1.27% (inactive)
Cn1c(=O)c2c(nc(NCc3ccccc3)n2Cc2ccc(F)cc2)n(C)c1=O ... 2.54% (inactive)
O=C(Cn1nc(Cc2cccnc2)c2ccccc2c1=O)N1CCN(c2ccccn2)CC1 ... 0.985% (inactive)
Cc1onc(-c2ccccc2Cl)c1C(=O)Nc1nnc(-c2ccc(F)cc2)s1 ... 2.51% (inactive)
COC(=O)C1=C(C)N(c2cc(Cl)cc(Cl)c2)C(=O)C1 ... 0.14% (inactive)
COC(=O)C1=C(C)NC(=O)CC1c1cc2c(cc1Br)OCO2 (configuration not stated) ... 1.42% (inactive)
CCOC(=O)c1sc2nc3n(c(=O)c2c1C)CCCCC3 ... 0.475% (inactive)
CCS(=O)(=O)N1CCN(Cc2nc3ccccc3c(=O)[nH]2)CC1 ... 1.33% (inactive)
COc1ccc2ccccc2c1C1CC(=O)N2CN(Cc3ccco3)CSC2=C1C#N (configuration not stated) ... 3.5% (inactive)
O=C(CCSc1ccccc1)Nc1nnc(-c2ccccc2)o1 ... 0.27% (inactive)
O=C(O)COc1ccc(Br)cc1/C=N/O ... 0.975% (inactive)
CC1=C(C(=O)OC2CCCCC2)C(c2ccco2)n2ncnc2N1 (configuration not stated) ... 1.47% (inactive)
O=P(O)(CCc1ccncc1)CN1CCCCC1 ... 1.82% (inactive)
O=C(C1CCN(S(=O)(=O)c2cccc3cccnc23)CC1)N1CC=C(c2ccccc2)CC1 ... 1.93% (inactive)
CCn1nnnc1-c1ccc(OC)c(S(=O)(=O)NCCc2ccccc2)c1 ... 0.03% (inactive)
CC(CNC(=O)C1CCCCC1)NC(=O)C1CCCCC1 (configuration not stated) ... 0.08% (inactive)
Cc1sc2nc(SCC(=O)N(CCO)CCO)n(C3CCCCC3)c(=O)c2c1C ... 2.33% (inactive)
Cc1ccc(Cl)cc1NC(=O)COC(=O)C1CCCC1 ... 1.32% (inactive)
Cn1nc(-c2ccc(Cl)cc2)c2cc(C(=O)N3CCN(C(=O)c4ccco4)CC3)sc21 ... 0.755% (inactive)
CCOC(=O)c1cnc2c(C)cccc2c1NCc1ccco1 ... 1.28% (inactive)
O=C(O)c1ccccc1C(=O)c1cccs1 ... 0.54% (inactive)
CNc1oc(C)nc1S(=O)(=O)c1ccccc1 ... 1.98% (inactive)
O=c1oc(-c2cc3ccccc3o2)nc2sc3c(c12)CCCC3 ... 2.1% (inactive)
CCOC(=O)N1CCC(NC(=O)c2cnc3n(c2=O)CCS3)CC1 ... 2.27% (inactive)
COCCNC(=O)Cn1cc2c(n1)CCC(C)C2 (configuration not stated) ... 2.06% (inactive)
COc1ccc(C)cc1NC(=O)CN1C(=O)c2ccccc2S1(=O)=O ... 3.04% (inactive)
O=C(Nc1ccccc1C(=O)NCc1ccco1)NC1CCCCC1 ... 0.79% (inactive)
CCOC(=O)c1c(N)sc(C(N)=O)c1C ... 1.25% (inactive)
CC1CCCN(C(C(=O)Nc2ccc3c(c2)OCO3)c2ccccc2)C1 (configuration not stated) ... 1.85% (inactive)
COC(=O)C1=CN(C(C)C)C=C(C(=O)OC)C1c1cccc(OC)c1 ... 0.405% (inactive)
